In this section we review reported IC50 values for a set of compounds.
molecular target: MB-COMT (Homo sapiens, UniProt P21964); construct: 6xHis or 10xHis (C); assay: COMT inhibition, esculetin fluorescence or fluorescence polarization assay (MB-COMT); conditions: purified human COMT Val158 variant, membrane-bound
Sequence (P21964 whole entry): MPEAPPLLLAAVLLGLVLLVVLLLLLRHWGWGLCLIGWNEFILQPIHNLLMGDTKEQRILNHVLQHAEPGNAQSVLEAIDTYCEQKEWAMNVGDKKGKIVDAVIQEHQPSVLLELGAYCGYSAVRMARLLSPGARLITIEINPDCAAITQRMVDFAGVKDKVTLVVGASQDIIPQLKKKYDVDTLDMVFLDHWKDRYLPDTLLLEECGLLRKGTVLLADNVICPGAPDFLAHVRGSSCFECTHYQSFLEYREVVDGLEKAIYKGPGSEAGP
// return numeric value only (unit: nM, not printed)

Req: So what does the record say about IC50 for Cn1cc(-c2cccc(-c3ccccc3)c2)cc(O)c1=O [Example 4] ?
Resp: 118

Req: Thanks! And Cn1cc(-c2ccc(Cl)cc2Cl)cc(O)c1=O [Example 1] ?
Resp: 392

Req: Thanks! And N#Cc1cccc(-c2c[nH]c(=O)c(O)c2)c1 [Compound #8] ?
Resp: 197

Req: Thanks! And O=c1[nH]cc(-c2ccc(Cl)c(C(F)(F)F)c2)cc1O [Compound #2] ?
Resp: 31

Okay, next one:
Req: So what does the record say about IC50 for Cn1cc(-c2ccc3ccccc3c2)cc(O)c1=O [Compound #1] ?
Resp: 179
